experiment-notes: Inhibition of 20s proteasome subunit beta-2c in human RPMI8226 cells using BODIPY-epoxomicin by fluorescent densitometry
Assay type: cell-based
measurement-parameters: rpmi-8226
pIC50: −log10 of the molar value.
readout-label: pIC50

Worked examples follow.
COc1ccc(C[C@H](NC(=O)[C@H](C)NC(=O)CN2CCOCC2)C(=O)N[C@@H](Cc2ccccc2)C(=O)[C@@]2(C)CO2)cc1 | 5.96
COc1ccc(C[C@H](NC(=O)[C@@H](C)NC(=O)C2=C(C)c3ccccc3C2)C(=O)N[C@@H](CC2CCCCC2)C(=O)[C@@]2(C)CO2)cc1 | < 4.00
CC1=C(C(=O)N[C@H](C)C(=O)N[C@@H](Cc2c[nH]c3ccccc23)C(=O)N[C@@H](CC2CCCCC2)C(=O)[C@@]2(C)CO2)Cc2ccccc21 | < 4.00
CC1=C(C(=O)N[C@H](C)C(=O)N[C@@H](Cc2c[nH]c3ccccc23)C(=O)N[C@@H](Cc2ccccc2)C(=O)[C@@]2(C)CO2)Cc2ccccc21 | < 4.00
C[C@@H](NC(=O)CN1CCOCC1)C(=O)N[C@@H](Cc1c[nH]c2ccccc12)C(=O)N[C@@H](CC1CCCCC1)C(=O)[C@@]1(C)CO1 | < 5.00

Attention now turns to another entry.
(Q) // lookup pIC50 for CC1=C(C(=O)N[C@H](C)C(=O)N[C@@H](Cc2c[nH]c3ccccc23)C(=O)N[C@H](/C=C/S(C)(=O)=O)Cc2ccccc2)Cc2ccccc21
(A) < 4.00

----------
experiment-notes: Inhibition of 20s proteasome subunit beta-5c in human RPMI8226 cells using BODIPY-NC005 by fluorescent densitometry
Assay type: cell-based
measurement-parameters: rpmi-8226
pIC50: −log10 of the molar value.
readout-label: pIC50

Recorded pIC50, per entry:
CC1=C(C(=O)N[C@H](C)C(=O)N[C@@H](Cc2c[nH]c3ccccc23)C(=O)N[C@H](/C=C/S(C)(=O)=O)Cc2ccccc2)Cc2ccccc21 | < 4.00
COc1ccc(C[C@H](NC(=O)[C@@H](C)NC(=O)C2=C(C)c3ccccc3C2)C(=O)N[C@@H](CC2CCCCC2)C(=O)[C@@]2(C)CO2)cc1 | < 4.00

Next item in the queue.
(Q) What does the data say about its pIC50? Entry: CC1=C(C(=O)N[C@H](C)C(=O)N[C@@H](Cc2c[nH]c3ccccc23)C(=O)N[C@@H](CC2CCCCC2)C(=O)[C@@]2(C)CO2)Cc2ccccc21
(A) < 4.00
